Experiment: PK i.v. bolus in healthy and adenine/high-phosphate-diet (uremic) rats
Type: in vivo, male Sprague-Dawley rats
Settings: male, Sprague-Dawley, rat, plasma, iv, 10 mg/kg, Uremic, i.v., Time 1.5 h, individual rats; read-out: plasma concentration (Figure 4g)
measured.property: concentration at 1.5 h (µM)
Numbers only, in µM.

Task: Requested field: concentration at 1.5 h. Item: COCCOCCO[C@@H]1[C@@H](OP(=O)(O)O)[C@H](OCCOCCOC)[C@@H](OP(=O)(O)O)[C@@H](OP(=O)(O)O)[C@H]1OP(=O)(O)O
Output: 7.2

---

System: transformation of CPP1 to CPP2 in pooled human serum
Test: In vitro serum calcification propensity (T50) screening assay
Assay type: biochemical
Conditions: mean of n experiments
Please respond with reported concentration upon which a T50 of 350 min is reached (c350), mean for every item in the list.
Numbers only, in µM.

Previously resolved entries follow.
CC(O)(P(=O)(O)O)P(=O)(O)O [Etidronate, etidronate] = 10.5
COCCOCCOCCOCCOCCOCCOCCOCCOCCOCCOCCO[C@@H]1[C@@H](OP(=O)(O)O)[C@H](OP(=O)(O)O)[C@@H](OP(=O)(O)O)[C@@H](OP(=O)(O)O)[C@H]1OP(=O)(O)O (racemic) = 5.3
O=P(O)(O)O[C@@H]1[C@H](O)[C@H](O)[C@@H](OP(=O)(O)O)[C@H](OP(=O)(O)O)[C@H]1O [IP3, myo-Inositol-1,4,5-triphosphate] = 18.6

Batch request: concentration upon which a T50 of 350 min is reached (c350), mean per item, same order as input.
1. O=P(O)(O)O[C@@H]1[C@@H](O)[C@@H](OP(=O)(O)O)[C@@H](O)[C@H](O)[C@H]1O [IP2, myo-Inositol-2,4-diphosphate]
2. COCCOCCOCCOCCOCCOCCOCCOCCOCCOCCOCCO[C@@H]1[C@@H](OP(=O)(O)O)[C@H](OCCOCCOCCOCCOCCOCCOCCOCCOCCOCCOCCOC)[C@@H](OP(=O)(O)O)[C@@H](OP(=O)(O)O)[C@H]1OP(=O)(O)O
3. COCCOCCOCCOCCOCCOCCOCCOCCOCCOCCOCCO[C@@H]1[C@@H](OS(=O)(=O)O)[C@H](OP(=O)(O)O)[C@@H](OS(=O)(=O)O)[C@@H](OP(=O)(O)O)[C@H]1OS(=O)(=O)O (racemic)
4. O=P(O)(O)O[C@@H]1[C@@H](O)[C@H](OP(=O)(O)O)[C@@H](OP(=O)(O)O)[C@H](O)[C@@H]1OP(=O)(O)O [IP4, myo-Inositol-2,3,5,6-tetrakisphosphate]
5. O=P(O)(O)O[C@H]1[C@H](OP(=O)(O)O)[C@@H](OP(=O)(O)O)[C@H](OP(=O)(O)O)[C@@H](OP(=O)(O)O)[C@H]1OP(=O)(O)O [IP6, myo-Inositol hexakisphosphate]

Output:
35.0
3.8
18.6
19.5
35.0

Required: concentration upon which a T50 of 350 min is reached (c350), mean, one value per compound below.
1. COCCOCCOCCOCCOCCOCCOCCO[C@@H]1[C@@H](OP(=O)(O)O)[C@H](OP(=O)(O)O)[C@@H](OP(=O)(O)O)[C@@H](OP(=O)(O)O)[C@H]1OP(=O)(O)O (racemic)
2. COCCOCCO[C@@H]1[C@@H](OP(=O)(O)O)[C@H](OP(=O)(O)O)[C@@H](OP(=O)(O)O)[C@@H](OP(=O)(O)O)[C@H]1OP(=O)(O)O (racemic)

Output:
6.7
7.9

---

Test: Urinary excretion after s.c. administration
Format: in vivo, rat
Conditions: rat, urine, subcutaneous, 10 mg/kg, 10 mg/kg s.c., healthy rats, 2 h; individual rats Fig. 4j; read-out: Cumulative recovery from rat urine
Description: To study urinary excretion, six animals were administered s.c. 10 mg/kg of (OEG2)2-IP4 and two animals served as blank urine controls. […] Urine samples were centrifuged at 3000 × g and 4 °C for 10 min and stored at −20 °C until quantification of (OEG2)2-IP4 by LC-MS/MS. Recovery (%) was calculated using Eq. (2).2 Recovery%=OEG22IP4μg/doseμg×ratweightkg×100.
measured.property: dose excreted (%)
Give bare numbers, in %.

Task: What measured dose excreted goes with COCCOCCO[C@@H]1[C@@H](OP(=O)(O)O)[C@H](OCCOCCOC)[C@@H](OP(=O)(O)O)[C@@H](OP(=O)(O)O)[C@H]1OP(=O)(O)O ?
Output: 26.7

---

Test: PK in healthy rats, s.c.
Type: in vivo, male Sprague-Dawley rats
Settings: male, Sprague-Dawley, rat, plasma, sc; 100 mg/kg s.c., t = 90 min (Fig. 4d; tlast 360 in Suppl. Table 2)
measured.property: AUC(0-t) (µM·h)
Numbers only, in µM·h.

Task: Entry O=P(O)(O)O[C@H]1[C@H](OP(=O)(O)O)[C@@H](OP(=O)(O)O)[C@H](OP(=O)(O)O)[C@@H](OP(=O)(O)O)[C@H]1OP(=O)(O)O [IP6, myo-Inositol hexakisphosphate] has what AUC(0-t)?
Output: 19.4

---

Assay: Macrophage viability (MTS) with CPP2 and compounds
Type: cell-based, human
Details: human, THP-1-derived macrophages, 100 µM + CPP2; read-out: Macrophage viability (MTS), % of medium control
Text: Macrophage accumulation and inflammation coincide with the initial phase of calcification. To this end, VSMCs and THP-1-derived macrophages were exposed to CPP2-supplemented medium. CPP2 prepared from human serum as described previously[61] […] However, no increase in H2O2 nor TNF-α compared to control could be detected in either assay. […]
measured.property: viability at 24 h, 100 µM (%)
Give bare numbers, in %.

O=P(O)(O)O[C@H]1[C@H](OP(=O)(O)O)[C@@H](OP(=O)(O)O)[C@H](OP(=O)(O)O)[C@@H](OP(=O)(O)O)[C@H]1OP(=O)(O)O [IP6, myo-Inositol hexakisphosphate] = 69.2

Let's switch to this compound now.
Task: viability at 24 h, 100 µM lookup needed for COCCOCCO[C@@H]1[C@@H](OP(=O)(O)O)[C@H](OCCOCCOC)[C@@H](OP(=O)(O)O)[C@@H](OP(=O)(O)O)[C@H]1OP(=O)(O)O [(OEG2)2-IP4] , thanks.
Output: 99.1

---

Experiment: VSMC viability (MTS) in CPP2-supplemented medium
Assay type: cell-based, human
Details: human, 3 µM with CPP2; read-out: VSMC viability (MTS), % of medium control
Text: Macrophage accumulation and inflammation coincide with the initial phase of calcification. To this end, VSMCs and THP-1-derived macrophages were exposed to CPP2-supplemented medium. CPP2 prepared from human serum as described previously[61] […] However, no increase in H2O2 nor TNF-α compared to control could be detected in either assay. […]
measured.property: viability at 48 h, 3 µM

Task: Requested read-out: viability at 48 h, 3 µM. Entry: COCCOCCO[C@@H]1[C@@H](OP(=O)(O)O)[C@H](OCCOCCOC)[C@@H](OP(=O)(O)O)[C@@H](OP(=O)(O)O)[C@H]1OP(=O)(O)O [(OEG2)2-IP4]
Output: 102%

---

Assay: PK in healthy rats, s.c.
Type: in vivo, male Sprague-Dawley rats
Settings: male, Sprague-Dawley, rat, in vivo, sc; 50 mg/kg s.c.
measured.property: half-life
Lab note: write values as number then unit, every time.

Task: Reported half-life for COCCOCCO[C@@H]1[C@@H](OP(=O)(O)O)[C@H](OCCOCCOC)[C@@H](OP(=O)(O)O)[C@@H](OP(=O)(O)O)[C@H]1OP(=O)(O)O : what is it?
Output: 3.17 h

---

Assay: PK in healthy rats, s.c.
Format: in vivo, male Sprague-Dawley rats
Conditions: male, Sprague-Dawley, rat, in vivo, sc; 50 mg/kg s.c.
measured.property: AUC(0-inf) (µM·h)
Answers are plain numbers, in µM·h.

Task: Fill in: AUC(0-inf) of COCCOCCO[C@@H]1[C@@H](OP(=O)(O)O)[C@H](OCCOCCOC)[C@@H](OP(=O)(O)O)[C@@H](OP(=O)(O)O)[C@H]1OP(=O)(O)O is ___
Output: 122

---

Experiment: PK in healthy rats, i.v. bolus
Format: in vivo, male Sprague-Dawley rats
Conditions: male, Sprague-Dawley, rat, plasma, iv; 10 mg/kg i.v., t = 30 min
measured.property: AUC(0-t) (µM·h)
Give bare numbers, in µM·h.

Task: Need AUC(0-t) of O=P(O)(O)O[C@H]1[C@H](OP(=O)(O)O)[C@@H](OP(=O)(O)O)[C@H](OP(=O)(O)O)[C@@H](OP(=O)(O)O)[C@H]1OP(=O)(O)O [IP6, myo-Inositol hexakisphosphate] , thanks.
Output: 3.77

---

Test: Macrophage viability (MTS) with CPP2 and compounds
Type: cell-based, human
Conditions: human, THP-1-derived macrophages, 10 µM + CPP2; read-out: Macrophage viability (MTS), % of medium control
For each of the molecules below, state its viability at 24 h, 10 µM.
Answers are plain numbers, in %.

O=P(O)(O)O[C@H]1[C@H](OP(=O)(O)O)[C@@H](OP(=O)(O)O)[C@H](OP(=O)(O)O)[C@@H](OP(=O)(O)O)[C@H]1OP(=O)(O)O [IP6, myo-Inositol hexakisphosphate] = 98

Now look at this one.
Task: Recorded viability at 24 h, 10 µM of COCCOCCO[C@@H]1[C@@H](OP(=O)(O)O)[C@H](OCCOCCOC)[C@@H](OP(=O)(O)O)[C@@H](OP(=O)(O)O)[C@H]1OP(=O)(O)O , please.
Output: 97.5
